Ref: ChEMBL document CHEMBL4118148

Beta-1 adrenergic receptor (Rattus norvegicus) measurements of pIC50, listed per entry.
Sequence (P18090 whole entry): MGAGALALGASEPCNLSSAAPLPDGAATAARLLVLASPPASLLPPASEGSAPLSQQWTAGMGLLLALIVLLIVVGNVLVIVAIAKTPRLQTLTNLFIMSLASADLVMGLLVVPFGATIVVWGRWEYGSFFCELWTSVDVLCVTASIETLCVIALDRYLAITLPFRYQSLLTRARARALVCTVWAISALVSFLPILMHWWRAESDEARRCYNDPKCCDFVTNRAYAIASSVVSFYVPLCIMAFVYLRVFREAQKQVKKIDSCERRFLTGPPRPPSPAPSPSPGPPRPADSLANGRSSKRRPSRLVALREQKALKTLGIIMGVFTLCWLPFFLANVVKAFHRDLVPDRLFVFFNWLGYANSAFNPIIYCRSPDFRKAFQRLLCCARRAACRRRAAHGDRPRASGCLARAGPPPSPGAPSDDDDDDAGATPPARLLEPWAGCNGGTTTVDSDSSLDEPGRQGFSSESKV
Please report pIC50 as the negative decimal logarithm of the molar concentration, giving only the number.

{"compound": "COc1ccccc1CCNCC(O)COc1cccc2c(=O)c3ccccc3oc12.Cl (racemic)", "pIC50": 6.37}

Let us move to another entry and its pIC50.
Measured pIC50 for this entry COc1ccc(CCNCC(O)COc2cccc3c(=O)c4ccccc4oc23)cc1OC.Cl (racemic) on Beta-1 adrenergic receptor (Rattus norvegicus): 6.97

====

System: Rattus norvegicus
Test: Cardiotoxicity in Wistar rat assessed as effect on heart rate at 5 mg/kg, iv measured after 1 min (reference value: 323 to 374.5 bpm)
Type: toxicity, organism-based
Details: in vivo
measuredParameter: Activity (bpm)
Please respond with the number in bpm and leave the unit unwritten.

Solved cases (3 shown):
{"compound": "Cc1cccc2c(=O)c3ccc(OCC(O)CNC(C)(C)C)cc3oc12.Cl (racemic)", "Activity / bpm": 337}
{"compound": "COc1ccccc1OCCNCC(O)COc1cccc2c(=O)c3ccccc3oc12.Cl (racemic)", "Activity / bpm": 307}
{"compound": "COc1ccc(CCNCC(O)COc2cccc3c(=O)c4ccccc4oc23)cc1OC.Cl (racemic)", "Activity / bpm": 262.7}

According to the records, this compound COc1ccccc1CCNCC(O)COc1cccc2c(=O)c3ccccc3oc12.Cl (racemic) displays Activity of 356

According to the records, this compound Cl.O=c1c2ccccc2oc2cc(OCC(O)CN3CCN(c4ccccn4)CC3)ccc12 (racemic) displays Activity of 340.7

According to the records, this compound COc1ccccc1CNCC(O)COc1cccc2c(=O)c3ccccc3oc12.Cl (racemic) displays Activity of 246

According to the records, this compound Cl.O=c1c2ccccc2oc2c(OCC(O)CN3CCN(c4ccccn4)CC3)cccc12 (racemic) displays Activity of 368.2
